system: MCF7 breast; test: NCI tumour cell line growth inhibition, 48 h
experimental-readout: TGI

1. O=C(Nc1n[nH]c2nc(-c3ccco3)ccc12)C1CC1 = > 25 µM
2. C=C1C[C@@H](O)[C@@H](Br)C(C)(C)[C@]12CCC(C)(Cl)C(Br)C2 (stereo partly specified) = > 79.3 µM
3. COC(=O)CCC(NC(=O)C(C)NC(=O)COC1C(O)C(OC(=O)CCNc2c3ccccc3nc3cccc([N+](=O)[O-])c23)OC(OCc2ccccc2)C1NC(C)=O)C(N)=O (stereo unspecified) = 9.81 µM
4. Nc1ncnc2c1ncn2C1C=CC(CP(=O)(O)O)C1 (stereo unspecified) = > 100 µM
5. CCCCOC(=O)C1CN2C=CC=NC2=NC1(C(F)(F)F)C(F)(F)F (stereo unspecified) = > 100 µM
6. Oc1ccc(CNCc2ccccc2)c2cccnc12 = > 100 µM
7. COC1=NC(NC2OCC(O)C(O)C2O)=C(NC(C)=O)CN1C (stereo unspecified) = > 100 µM
8. NCC#CCNCCCN1CC1 = > 100 µM
9. N#CC1=C(S)N(C2OC(CO)C(O)C(O)C2O)C(c2ccccc2)=CC1c1ccccc1 (stereo unspecified) = > 100 µM
10. CCOP(=O)(OCC)C1CC(O)CN1OC(=O)C(C)(C)C (stereo unspecified) = > 100 µM
11. Oc1c2cc(Br)cc1CCc1cc(Br)cc(c1O)CC2 = 46.2 µM

====

// GI50 collected for EKVX NSCLC
experimental-readout: GI50

1. N.N.N.N.N.N.[I-].[Os] = > 100000 nM
2. Cc1c2c(nn1C(=O)c1nn(-c3ccc(Cl)cc3)cc1O)-c1ccccc1CC2 = 70.7 nM
3. c1cc(OCCN2CCCCCC2)ccc1CNc1ccc2nc(CCC3CCCCC3)[nH]c2c1 = 2490 nM
4. CC[C@@]1(O)C(=O)OCc2c1cc1n(c2=O)Cc2c-1nc1ccc(O)cc1c2CC[Si](C)(C)C = 18.1 nM
5. CC(=O)O[C@H]1C(=O)O[C@@H]2C[C@H]3C(C)=CC(=O)[C@@H](O)[C@]3(C)[C@H]3[C@@]4(O)OC[C@]32[C@@H]1[C@@H](C)[C@H]4O = 159 nM
6. CCOC(=O)/C(=C/c1ccc([N+](=O)[O-])cc1)C(=O)c1ccccc1 = 4880 nM
7. CCOC(=O)c1c(-c2ccccc2)[n+](=O)c2ccc(Cl)cc2n1[O-] = 2400 nM
8. NC1=C(Cl)C(=O)c2ccc(S(N)(=O)=O)cc2C1=O = 1530 nM
9. CN[C@]12CC3(C=CC(=O)C=C3)O[C@@]1(Cc1ccc(OC)cc1)N(C)C(=O)N2 = 4230 nM
10. Cn1ncc2c(/N=C/c3cccs3)[nH]c(=S)nc21 = 41100 nM

====

# TGI per record follows
system: SF-268 CNS; experiment: NCI tumour cell line growth inhibition, 48 h
experimental-readout: TGI

1. COc1ccc(-c2cc(=O)c3c(OC)c(OC)c(OC)c(OC)c3o2)cc1OC = > 100 µM
2. CN(/N=C/c1cccs1)c1ccc(Cl)cc1[N+](=O)[O-] = > 100 µM
3. N#CC(=S)Nc1ccc(Cl)c(Cl)c1 = > 94.5 µM
4. Cc1ccccc1NC(=O)C(=O)C(c1cnc2ccc([N+](=O)[O-])cc2n1)[N+](=O)[O-] (centres undefined) = > 100 µM
5. Cc1cc(C)c(O)c(Cc2cccc(Cc3cc(C)cc(C)c3O)c2O)c1 = > 100 µM
6. CN(C)CCCN(c1nc(C(Cl)(Cl)Cl)ns1)c1nc(C(Cl)(Cl)Cl)ns1 = 11.4 µM
7. O=C1CC(CC(O)C(O)C(O)CO)CC(=O)N1 (centres undefined) = > 100 µM
8. Oc1ccc(CNCc2ccccc2)c2cccnc12 = > 65.6 µM
9. Clc1ccc(Nc2nc(Cl)c3[nH]cnc3n2)cc1Cl = 91.3 µM
10. CCc1ccc(Nc2cc(=O)[nH]c(SCc3ccccc3)n2)cc1 = > 100 µM
11. Nc1ccc2c(c1)C(=O)N(O)C2=O = > 100 µM
12. COc1ccc(-c2c(C#N)c(-c3ccc(C)cc3)n(NS(=O)(=O)c3ccccc3)c(=O)c2C#N)cc1 = > 100 µM
13. Cn1ncc2c(/N=C/c3cccs3)[nH]c(=S)nc21 = > 94.6 µM
14. O=c1[nH]c(-c2cccc(F)c2)nc2ccccc12 = > 100 µM
15. CC1(C)C(O)C[C@]23CCC[C@](C)(C[C@@H](O)C12)C3 (some centres undefined) = > 100 µM
16. Cc1ccc([N+](=O)[O-])cc1NC(=O)C(=O)Cc1occc(=O)c1O = > 100 µM
17. CCOC(=O)c1c(C)nc2ccc(Cl)cc2c1-c1ccccc1 = 44.4 µM
18. O=C1N=C(c2ccccc2)OC1C(=O)c1ccccc1 (centres undefined) = > 100 µM
19. COC(=O)C1=NN2c3ccccc3C(=O)OCCC2(C)C1 (centres undefined) = > 100 µM
20. CCOC(=O)c1ccc(N(CCOS(C)(=O)=O)CCOS(C)(=O)=O)cc1C = 82.7 µM
21. COc1ccccc1C(C1=C(O)COC1=O)c1cc2c(cc1OC(C)=O)OCO2 (centres undefined) = > 100 µM
22. O=C1C2=Cc3ccccc3OC2(O)Oc2cc(O)ccc21 (centres undefined) = > 100 µM
23. CCOC(=O)C(Cc1c2ccccc2cc2ccccc12)(NC(C)=O)C(=O)OCC = > 100 µM
24. CN[C@]12CC3(C=CC(=O)C=C3)O[C@@]1(Cc1ccc(OC)cc1)N(C)C(=O)N2 = 9.82 µM
25. COC(=O)C1Cc2cccc(C)c2C1 (centres undefined) = > 100 µM
26. O=C(O)c1ccc(O)c(N=Nc2cc(S(=O)(=O)O)c3ccccc3c2O)c1 = > 10 µM
27. O=C(CCN1CC2CCC(CC2)C1)c1cccs1 = 44.3 µM
28. O=C(O)C(CSC(c1ccccc1)(c1ccccc1)c1ccccc1)N=Cc1cccs1 (centres undefined) = > 40.2 µM
29. Cc1cc2c(cc1Cl)SC(N/N=C(\N)c1ccc(Cl)cc1)=NS2(=O)=O = > 100 µM
30. CC1(C)OC(C(N)=O)=C(C(N)=O)O1 = > 100 µM
31. COc1ccc(C(=O)N2CCc3c([nH]c4ccccc34)C2C(=O)O)o1 (centres undefined) = > 10 µM
32. C[C@]12CCC(=O)C=C1CC[C@@H]1[C@@H]2CC[C@]2(C)C(=O)[C@H](n3ccnc3)C[C@@H]12 = > 100 µM
33. O=c1c2cc([N+](=O)[O-])ccc2n(Cc2ccccc2)n1Cc1ccccc1 = > 31.6 µM
34. Nc1ccccc1N/C(=C\C(=O)C(Cl)(Cl)Cl)c1ccccc1 = 70.4 µM
35. O=S(=O)(O)c1cccc2c(N=Nc3c(O)ccc4ccccc34)cccc12 = > 100 µM
36. C/C=C/C=N/N(C(=O)c1cc([N+](=O)[O-])cc([N+](=O)[O-])c1)C1=NC(c2ccccc2)C(c2ccccc2)=NN1 (centres undefined) = > 100 µM
37. COc1cc(/C=C/C(=O)c2ccc(Nc3ncnc4ccccc34)cc2)cc(OC)c1 = 12.2 µM
38. COc1ccc(N=C2C(=O)C3=C(OC(C)(C)CC3)c3ccccc32)cc1 = 10.7 µM
39. C#CCOCn1cnc2c(=S)nc[nH]c21 = > 100 µM
40. O=C(Nc1ccccc1)Nc1cccc(-n2cc(-c3ccncc3)c(-c3ccc(O)c(Cl)c3)n2)c1 = 68.8 µM
41. NC(=O)N/N=C(\C(=O)C(=O)Nc1ccc(Cl)c(C(F)(F)F)c1)c1nc2ccc(C(=O)c3ccccc3)cc2[nH]c1=O = > 100 µM
42. O=C(/C=C\c1cccc2ccccc12)c1cccs1 = 26.1 µM
43. CN=C1Nc2ccc(Cl)cc2C(c2ccccc2)=NN1C = > 100 µM
44. COc1ccc(N=c2ssc(C(=S)Nc3ccc(OC)cc3)c2S)cc1 = > 100 µM
